Reference source for all entries: patent USRE48842E1

Quick reference: IC50 of the listed items.
- Assay Target: human wildtype CFTR (Homo sapiens)
- Sequence (P13569 whole entry): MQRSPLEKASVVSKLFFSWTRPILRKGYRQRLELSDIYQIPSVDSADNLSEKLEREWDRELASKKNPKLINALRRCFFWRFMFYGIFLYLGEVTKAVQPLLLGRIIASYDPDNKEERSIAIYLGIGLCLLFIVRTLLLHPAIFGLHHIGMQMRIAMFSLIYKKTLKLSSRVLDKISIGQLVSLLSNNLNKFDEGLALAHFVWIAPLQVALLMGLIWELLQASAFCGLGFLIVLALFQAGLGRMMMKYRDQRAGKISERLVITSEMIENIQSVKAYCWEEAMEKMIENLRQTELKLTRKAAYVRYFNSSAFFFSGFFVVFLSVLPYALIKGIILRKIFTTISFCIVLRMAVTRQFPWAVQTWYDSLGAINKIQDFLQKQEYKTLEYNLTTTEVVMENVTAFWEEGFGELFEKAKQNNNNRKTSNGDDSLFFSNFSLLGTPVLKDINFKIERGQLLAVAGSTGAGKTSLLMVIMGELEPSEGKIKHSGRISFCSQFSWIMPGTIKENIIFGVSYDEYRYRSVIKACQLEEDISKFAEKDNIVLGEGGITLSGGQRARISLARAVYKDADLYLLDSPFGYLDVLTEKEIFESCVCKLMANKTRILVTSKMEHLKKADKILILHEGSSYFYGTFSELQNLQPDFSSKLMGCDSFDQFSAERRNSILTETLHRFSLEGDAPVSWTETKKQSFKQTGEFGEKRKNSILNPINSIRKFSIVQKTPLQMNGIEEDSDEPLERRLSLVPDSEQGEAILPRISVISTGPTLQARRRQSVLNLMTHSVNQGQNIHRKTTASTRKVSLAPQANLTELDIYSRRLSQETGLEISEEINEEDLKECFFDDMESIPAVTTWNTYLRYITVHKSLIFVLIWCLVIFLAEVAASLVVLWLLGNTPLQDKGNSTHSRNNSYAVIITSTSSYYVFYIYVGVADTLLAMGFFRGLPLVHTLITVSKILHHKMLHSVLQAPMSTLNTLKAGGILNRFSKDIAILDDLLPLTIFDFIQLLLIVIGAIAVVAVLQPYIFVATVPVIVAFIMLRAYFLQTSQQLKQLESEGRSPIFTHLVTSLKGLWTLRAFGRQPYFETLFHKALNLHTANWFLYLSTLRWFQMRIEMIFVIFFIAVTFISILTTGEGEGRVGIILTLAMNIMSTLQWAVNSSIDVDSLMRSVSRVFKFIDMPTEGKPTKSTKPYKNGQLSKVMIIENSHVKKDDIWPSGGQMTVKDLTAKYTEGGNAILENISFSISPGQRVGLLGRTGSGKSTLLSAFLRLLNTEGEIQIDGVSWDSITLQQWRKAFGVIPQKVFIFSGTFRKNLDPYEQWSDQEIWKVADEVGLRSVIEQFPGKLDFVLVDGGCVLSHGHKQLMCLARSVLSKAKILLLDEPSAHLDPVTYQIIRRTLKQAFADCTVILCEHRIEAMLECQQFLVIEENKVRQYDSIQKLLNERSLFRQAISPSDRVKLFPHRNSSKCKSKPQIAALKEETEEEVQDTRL
- Assay Method Text: Fluorescence plate reader assay of CFTR inhibition (iodide influx)
- Assay type: cell-based
- Design: expressed in transfected cells; host or cells: Fischer rat thyroid (FRT) cells
- Recorded Conditions: Determined by micro-plate reader assay; FRT cells co-expressing human wild type CFTR and YFP-H148Q
Write it as a number; the unit nM goes unstated.

Before answering, review these 6 worked examples.
[
  {
    "Compound": "Cc1ccc(C2Oc3cc([N+](=O)[O-])c(Cl)cc3-n3c(-c4ccccc4)c4c(=O)n(C)c(=O)n(C)c4c32)o1 (stereo not shown)",
    "IC50 (nM)": 170
  },
  {
    "Compound": "Cc1ccc(C2Oc3ccc([N+](=O)[O-])cc3-n3c(-c4ccccc4)c4c(=O)n(C)c(=O)n(C)c4c32)o1 (stereo not shown)",
    "IC50 (nM)": 100
  },
  {
    "Compound": "Cn1c(=O)c2c(-c3ccccc3)n3c(c2n(C)c1=O)C(c1ccc(C(F)(F)F)o1)Nc1ccccc1-3 (stereo not shown)",
    "IC50 (nM)": 350
  },
  {
    "Compound": "CCc1ccc(C2Nc3ccccc3-n3c(-c4ccccc4)c4c(=O)n(C)c(=O)n(C)c4c32)o1 (stereo not shown)",
    "IC50 (nM)": 300
  },
  {
    "Compound": "Cn1c(=O)c2c(-c3ccccc3)n3c(c2n(C)c1=O)C(c1ccc(Br)o1)Nc1ccccc1-3 (stereo not shown)",
    "IC50 (nM)": 90
  },
  {
    "Compound": "Cc1ccc(C2Nc3ccccc3-n3c(-c4ccccc4)c4c(=O)n(C)c(=O)n(C)c4c32)s1 (stereo not shown)",
    "IC50 (nM)": 1700
  }
]

Please find the next compound below.
Req: Form field: IC50 recorded for CCOC(=O)c1ccc2c(c1)-n1c(-c3ccccc3)c3c(=O)n(C)c(=O)n(C)c3c1C(c1ccc(Br)o1)O2 (racemic) with human wildtype CFTR (Homo sapiens) (enter value)
Resp: 50
